Consider the following molecules; for each one, report its Ki.
Molecular target: 1,4-dihydroxy-2-naphthoyl-CoA synthase (Mycobacterium tuberculosis, UniProt P9WNP5)
Sequence (P9WNP5 whole entry): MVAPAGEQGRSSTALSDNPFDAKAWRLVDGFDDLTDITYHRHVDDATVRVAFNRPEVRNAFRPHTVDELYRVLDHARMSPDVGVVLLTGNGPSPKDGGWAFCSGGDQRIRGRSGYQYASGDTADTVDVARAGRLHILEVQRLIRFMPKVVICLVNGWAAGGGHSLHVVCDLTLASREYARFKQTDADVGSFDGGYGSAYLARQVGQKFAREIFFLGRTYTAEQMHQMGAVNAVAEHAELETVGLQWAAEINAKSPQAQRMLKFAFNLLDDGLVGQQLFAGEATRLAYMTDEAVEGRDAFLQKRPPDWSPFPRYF
Assay: Non-competitive inhibition of Mycobacterium tuberculosis MenB expressed in Escherichia coli BL21 (DE3) assessed as inhibition of enzyme-substrate complex formation
Give bare numbers, in µM.

Completed entries (count: 2):
Q: # get_value(readout= Ki, system= 1,4-dihydroxy-2-naphthoyl-CoA synthase (Mycobacterium tuberculosis, UniProt P9WNP5)) for COC(=O)/C=C1\Nc2cc(F)ccc2OC1=O
A: 10.1

Q: Another molecule to check: COC(=O)/C=C1\Nc2ccccc2OC1=O
A: 67

Consider the record given below.
Q: # get_value(readout= Ki, system= 1,4-dihydroxy-2-naphthoyl-CoA synthase (Mycobacterium tuberculosis, UniProt P9WNP5)) for COC(=O)/C=C1\Nc2cc(Cl)ccc2OC1=O
A: 18.5
